# credit: PubChem BioAssay (NCI)

Provide the reported TGI of each item.
tested on: HCT-116 colon; assay: NCI tumour cell line growth inhibition, 48 h

Previously resolved entries follow.
CC1C=CC(C)C2(O)C(=O)NC(O)C12 (stereo unspecified) : > 100 µM
COC(=O)c1cc(-c2ccc(-c3ccc(O)cc3)cc2)cc(-c2ccc(-c3ccc(O)cc3)cc2)c1 : 17.9 µM
O=C(CC/C(CC(=O)c1ccc(Cl)cc1)=N/O)Nc1ccc(Cl)c(Cl)c1 : > 100 µM
CN(C)CC(C)(C)C(/C=C/c1ccccc1)=N\Nc1ccccc1 : 15.7 µM
O=C(O)c1cncc(C(=O)O)c1 : > 100 µM
CC(C)c1ccc2c(c1)C=C1OC(=O)[C@]3(C)CCC[C@@]2(C)C13 (stereo partly specified) : > 100 µM

Hi team, please reply with TGI for each item in this list.
1. COCC(=O)OC1CCn2c1nc1c2C(=O)C(C)=C(NC(C)=O)C1=N (stereo unspecified)
2. O=c1[nH]ccc2nc(-c3ccc(CN4CCC(c5nc(-c6ccccn6)n[nH]5)CC4)cc3)c(-c3ccccc3)cc12

Result:
1. 11.4 µM
2. > 92.7 µM

Hi team, please reply with TGI for each item in this list.
1. COc1cc(OC)c2cc(C(=O)O)c(=O)oc2c1
2. COc1ccc(C(=O)Cn2c(C(C)=O)nc3ccccc32)cc1
3. N#CCCN(CCC#N)c1ccc(/C=N\c2nc(-c3ccccc3)cs2)cc1
4. O=C1c2cccc3cccc(c23)C(=O)N1CCCCN1CCN(CCCCOc2ccc(-c3nc4ccc(N5CCOCC5)cc4[nH]3)cc2)CC1
5. N#Cc1c(NC(=O)c2cccc3ccccc23)sc2c1CCCC2
6. CCCN1CN(c2ccccc2)C2(CCN(CCCC(=O)c3ccc(F)cc3)CC2)C1=O
7. CN(C)CS/C(N)=N\C(O)C(Cl)(Cl)Cl (stereo unspecified)
8. CC(C)[Si](OCC1CC(C[C@H]2CC(C[C@H]3C[C@@H](CO[Si](C(C)C)(C(C)C)C(C)C)OC(C)(C)O3)OC(C)(C)O2)OC(C)(C)O1)(C(C)C)C(C)C (stereo partly specified)

Result:
1. > 100 µM
2. > 100 µM
3. > 100 µM
4. > 100 µM
5. 5.37 µM
6. 8.75 µM
7. > 100 µM
8. > 100 µM

Hi team, please reply with TGI for each item in this list.
1. CNC(=O)c1n[nH]n(Cc2ccccc2)c1=S
2. CCN(CC)CCCNc1nc2ccccc2c2c(=O)c3cc(Cl)ccc3sc12
3. O=C1OC2c3ccccc3C(=O)C2(c2ccccc2)N1c1ccccc1 (stereo unspecified)
4. CC(C)C(Sc1nc(-c2ccccc2)c(-c2ccccc2)[nH]1)C(=O)N/N=C/c1ccc([N+](=O)[O-])cc1 (stereo unspecified)

Result:
["> 100 µM", "3.22 µM", "> 200 µM", "28 µM"]

Hi team, please reply with TGI for each item in this list.
1. COc1ccc(N(C)c2nc(Cl)nc3ccn(C)c23)cc1
2. CCn1c(-c2ccccc2)nc2c1C(=O)c1ccccc1C2=O
3. COc1cc(-n2cc(-c3ccc(F)cc3)[nH]c2=S)cc(OC)c1OC
4. CC(=O)[O-].CC(=O)[O-].O=C(N/N=C/c1cc(Cl)cc(Cl)c1[OH2+])c1ccncc1.[Zn+2]
5. Cn1cnc([N+](=O)[O-])c1Sc1nc2cccnc2s1

Result:
1. > 100 µM
2. 63.6 µM
3. > 100 µM
4. > 100 µM
5. 29.5 µM

Q: State its TGI on HCT-116 colon: `O=Cc1[nH]c(=O)[nH]c(=O)c1CCl`
Result: > 100 µM

====

Provide the reported TGI of each item.
test system: SK-MEL-2 melanoma; experiment: NCI tumour cell line growth inhibition, 48 h
Numbers only, in µM.

Cc1ccc(/C=C/C(=O)c2ccc(N)cc2)c(C)c1 : 28.4

# evaluate next
Q: What does the record list as TGI for `O=C1c2ccccc2C(=O)c2c1oc(=O)c1ccccc21` ?
Result: 10.1

====

Provide the reported TGI of each item.
system: OVCAR-5 ovarian; assay: NCI tumour cell line growth inhibition, 48 h

Previously resolved entries follow.
COc1ccc(C(=O)/C=C/c2ccc(OCC(=O)O)cc2)cc1 : > 100 µM
c1ccc2c(c1)CCN1CCc3c([nH]c4ccccc34)C21 (stereo not drawn) : > 100 µM

Q: What does the record list as TGI for COP(=O)(OC)C(O)/C=C(\Cl)c1ccc(Cl)cc1 (stereo not drawn) ?
Result: > 100 µM

====

Provide the reported TGI of each item.
system: COLO 205 colon; assay: NCI tumour cell line growth inhibition, 48 h

Previously resolved entries follow.
CC(C)[Si](OCC1CC(C[C@H]2CC(C[C@H]3C[C@@H](CO[Si](C(C)C)(C(C)C)C(C)C)OC(C)(C)O3)OC(C)(C)O2)OC(C)(C)O1)(C(C)C)C(C)C (some centres undefined) : > 100 µM
NC1=NN(c2ccccc2)C2(c3ccncc3C(=O)O)C1C(N)=NN2c1ccccc1 (centres undefined) : > 100 µM
C=CCOC(=O)CCCCCCCCCCCCCCCOC(=O)c1c(CCC[C@@H](C)O[Si](C)(C)C(C)(C)C)nc(=O)n2c1CC[C@H]2CC1(CC/C=C\[C@H](CC)O[Si](C(C)C)(C(C)C)C(C)C)OCCO1 : > 100 µM
COc1ccc(CC2NCCc3cc(OC)c(OC)cc32)cc1 (centres undefined) : > 100 µM
O=C1SC(c2ccccc2)(c2ccccc2)c2ccccc21 : > 100 µM

Hi team, please reply with TGI for each item in this list.
1. O=C(Nc1cccc([N+](=O)[O-])c1)c1ccc2ccccc2c1O
2. Cc1cc(N(CCC#N)CCC#N)ccc1/C(N=Nc1ccccc1)=N\NC(=O)c1ccccc1
3. O=C(N/N=C/C=C/c1ccc([N+](=O)[O-])o1)c1ccc(Br)s1
4. CCOC(=O)N[C@H]1CCc2cc(O)c(OC)c(OC)c2-c2ccc(SC)c(=O)cc21
5. CCN(CC)c1nc(N(C)C)c2ccc(OC)cc2n1
6. CC(C)c1ccc2c(c1)C=C1OC(=O)[C@]3(C)CCC[C@@]2(C)C13 (some centres undefined)

Result:
["> 57.5 µM", "53.6 µM", "33.3 µM", "1.22 µM", "21.6 µM", "> 100 µM"]

Hi team, please reply with TGI for each item in this list.
1. CC(=O)O[C@H]1[C@H](OC(C)=O)[C@@H](CN=[N+]=[N-])OCO[C@@H]1CN=[N+]=[N-]
2. Cn1c(=O)c2nc3nnc(C#N)c(N)n3c2n(C)c1=O
3. COc1ccc2cc3[n+](cc2c1OC)CCc1cc2c(cc1-3)OCO2

Result:
> 100 µM
> 100 µM
33.3 µM [middle of 5 runs]

====

tested on: NCI-H23 lung; assay: NCI tumour cell line growth inhibition, 48 h
Provide the reported TGI of each item.

CC1(C)N=C(N)N=C(N)N1c1ccc(OCC(=O)N2CCOCC2)c(Cl)c1 : > 100 µM

Hi team, please reply with TGI for each item in this list.
1. CC(C)CCNC(=O)c1ccc(CNC(=O)/C=C/c2csc(-c3ccccc3)n2)cc1
2. Cn1c(=O)c2[nH]c(C3CC(=O)CC(c4nc5c([nH]4)c(=O)n(C)c(=O)n5C)N3)nc2n(C)c1=O (stereo not drawn)
3. COc1cc2c3c(n(CCCNC(=O)OCC4c5ccccc5-c5ccccc54)c(=O)c2cc1OC)-c1cc2c(cc1C3=O)OCO2
4. COc1ccccc1-c1nc2ccccc2c(=O)[nH]1
5. O=C(O)/C=C/c1cnc[nH]1

Result:
["> 100 µM", "> 100 µM", "> 100 µM", "> 100 µM", "> 500 µM"]

Hi team, please reply with TGI for each item in this list.
1. CC(=O)OC1(C#N)CC2OC1C1C2N1C(=O)OC(C)(C)C (stereo not drawn)
2. CNC(=O)c1n[nH]n(Cc2ccccc2)c1=S

Result:
1: > 100 µM; 2: > 100 µM

Hi team, please reply with TGI for each item in this list.
1. O=C(Nc1cccc([N+](=O)[O-])c1)c1ccc2ccccc2c1O
2. O=c1oc2cccnc2n1CCN1CCN(c2ccc(Oc3ccccc3)cc2)CC1

Result:
> 89.8 µM
> 100 µM

Hi team, please reply with TGI for each item in this list.
1. CNc1cccnc1/C=N/NC(N)=S
2. COc1ccc(CC2NCCc3cc(OC)c(OC)cc32)cc1 (stereo not drawn)
3. COc1ccc(Cn2cnc3cc(C(=O)Nc4cccc5ccccc45)ccc32)c(OC)c1

Result:
1: > 6.65 µM; 2: > 100 µM; 3: > 100 µM

====

Provide the reported TGI of each item.
tested on: SNB-19 CNS; test: NCI tumour cell line growth inhibition, 48 h

Hi team, please reply with TGI for each item in this list.
1. COc1cccc(C2C(C(=O)O)=C(CO)Oc3cc4c(cc32)OCO4)c1 (centres undefined)
2. O=C1Nc2ccccc2/C1=C/c1ccccc1
3. CCOP(=O)(OCC)/C(C#N)=C/c1ccc[nH]1
4. CCn1c(-c2ccccc2)nc2c1C(=O)c1ccccc1C2=O

Result:
> 100 µM
30 µM
> 100 µM
> 100 µM
